Below is a list of entries, each paired with its recorded pEC50 value.
Target: T1, TauC3 (C-terminally truncated tau fragment ending at aspartate 421 of htau40) (human, UniProt P10636 1-738)
T1 construct: Generated and purified by Genscript; also called Human TauC3; recombinant TauC3 protein
T1 sequence (P10636 other isoform, or with tags, fused parts or gaps): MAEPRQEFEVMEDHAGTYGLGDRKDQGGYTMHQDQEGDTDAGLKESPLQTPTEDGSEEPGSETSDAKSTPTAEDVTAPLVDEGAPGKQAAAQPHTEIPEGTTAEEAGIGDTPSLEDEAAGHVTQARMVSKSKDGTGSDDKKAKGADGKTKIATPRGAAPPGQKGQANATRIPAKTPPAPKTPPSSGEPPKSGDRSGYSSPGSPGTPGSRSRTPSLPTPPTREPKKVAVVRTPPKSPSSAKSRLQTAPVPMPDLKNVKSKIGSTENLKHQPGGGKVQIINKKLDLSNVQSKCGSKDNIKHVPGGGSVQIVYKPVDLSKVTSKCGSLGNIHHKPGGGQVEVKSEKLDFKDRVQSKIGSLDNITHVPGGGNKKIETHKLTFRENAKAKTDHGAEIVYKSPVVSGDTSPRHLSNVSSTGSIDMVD
Test: binding ELISA on coated TauC3, OD650
// field semantics: pEC50 = negative decimal log of concentration (mol/L)

BINDER: MoTau01 HuG4K chimeric antibody (antibody, V domains shown, Mouse variable regions with human IgG4 / kappa constant regions (pHuG4, pHuK); also called chimeric Tau01) VH: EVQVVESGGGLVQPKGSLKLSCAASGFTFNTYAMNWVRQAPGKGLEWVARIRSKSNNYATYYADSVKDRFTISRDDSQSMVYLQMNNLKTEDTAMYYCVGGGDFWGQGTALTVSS VL: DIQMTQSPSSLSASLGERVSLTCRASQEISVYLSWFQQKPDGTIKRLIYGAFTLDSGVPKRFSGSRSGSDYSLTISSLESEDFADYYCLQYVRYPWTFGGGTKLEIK
pEC50: 9.32

BINDER: Tau01 HMKG (antibody, V domains shown, human IgG4 kappa (HuG4K)) VH: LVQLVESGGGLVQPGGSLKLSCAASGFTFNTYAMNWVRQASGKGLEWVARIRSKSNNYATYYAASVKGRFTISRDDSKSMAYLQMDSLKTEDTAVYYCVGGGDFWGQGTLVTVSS VL: DIQMTQSPSSLSASVGDRVTITCRASQEISVYLGWYQQKPGKAPKRLIYGAFTLQSGVPSRFSGSRSGTEFTLTISSLQPEDFATYYCLQYVRYPWTFGGGTKVEIK
pEC50: 9.26

BINDER: Tau01 HCKB HuG4K (antibody, V domains shown, human IgG4 kappa (HuG4K)) VH: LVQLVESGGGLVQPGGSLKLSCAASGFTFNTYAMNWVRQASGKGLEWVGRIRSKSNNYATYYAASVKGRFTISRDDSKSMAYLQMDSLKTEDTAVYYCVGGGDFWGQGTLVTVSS VL: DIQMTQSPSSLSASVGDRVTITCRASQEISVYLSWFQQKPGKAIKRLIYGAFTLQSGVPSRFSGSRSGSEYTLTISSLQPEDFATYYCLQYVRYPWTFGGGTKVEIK
pEC50: 9.30

BINDER: Tau01 HMKB (antibody, V domains shown, human IgG4 kappa (HuG4K)) VH: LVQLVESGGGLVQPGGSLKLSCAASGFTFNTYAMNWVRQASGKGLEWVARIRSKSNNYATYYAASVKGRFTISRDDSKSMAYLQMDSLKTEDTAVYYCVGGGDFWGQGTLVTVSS VL: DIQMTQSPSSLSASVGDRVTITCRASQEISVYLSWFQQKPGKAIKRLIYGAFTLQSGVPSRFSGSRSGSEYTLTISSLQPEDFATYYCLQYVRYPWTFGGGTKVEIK
pEC50: 9.39

BINDER: Tau01 HMKJ (antibody, V domains shown, human IgG4 kappa (HuG4K)) VH: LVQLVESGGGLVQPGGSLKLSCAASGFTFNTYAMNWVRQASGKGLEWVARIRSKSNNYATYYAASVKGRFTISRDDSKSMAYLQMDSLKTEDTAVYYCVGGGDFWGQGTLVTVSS VL: DIQMTQSPSSLSASVGDRVTITCRASQEISVYLGWYQQKPGKAPKRLIYGAFSLQSGVPSRFSGSRSGTEFTLTISSLQPEDFATYYCLQYVRYPWTFGGGTKVEIK
pEC50: 9.28

What value of pEC50 has been reported for the following binder? Tau01 HMKI (antibody, V domains shown, human IgG4 kappa (HuG4K)) VH: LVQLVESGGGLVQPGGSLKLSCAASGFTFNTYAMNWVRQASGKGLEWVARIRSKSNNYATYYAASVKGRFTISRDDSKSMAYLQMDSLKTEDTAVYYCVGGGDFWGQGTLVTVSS VL: DIQMTQSPSSLSASVGDRVTITCRASQEISVYLGWYQQKPGKAPKRLIYGAFKLQSGVPSRFSGSRSGTEYTLTISSLQPEDFATYYCLQYVRYPWTFGGGTKVEIK
9.26

What value of pEC50 has been reported for the following binder? Tau01 HMKA (antibody, V domains shown, human IgG4 kappa (HuG4K)) VH: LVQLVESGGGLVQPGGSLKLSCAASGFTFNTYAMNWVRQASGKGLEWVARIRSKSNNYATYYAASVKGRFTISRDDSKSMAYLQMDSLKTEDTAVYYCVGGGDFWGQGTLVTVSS VL: DIQMTQSPSSLSASVGDRVTITCRASQEISVYLGWYQQKPGKAPKRLIYGAFKLQSGVPSRFSGSRSGTEFTLTISSLQPEDFATYYCLQYVRYPWTFGGGTKVEIK
9.26

What value of pEC50 has been reported for the following binder? Tau01 HBKB (antibody, V domains shown, human IgG4 kappa (HuG4K)) VH: EVQVVESGGGLVQPGGSLKLSCAASGFTFNTYAMNWVRQASGKGLEWVARIRSKSNNYATYYADSVKGRFTISRDDSKSMVYLQMDSLKTEDTAVYYCVGGGDFWGQGTLVTVSS VL: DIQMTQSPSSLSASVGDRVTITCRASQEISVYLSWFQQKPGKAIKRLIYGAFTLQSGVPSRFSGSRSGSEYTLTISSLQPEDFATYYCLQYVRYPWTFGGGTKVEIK
9.40
